Values were extracted from PubChem BioAssay AID463173.

Here the recorded survival is given for each entry.
Tested on: DeltatarO mutant
experimental_details: S. aureus survival, RN4220 and DeltatarO strains – OD600, teichoic acid synthesis inhibitors, primary screen (AID 463173)
measurement_parameters: S. aureus RN4220 wild type/DeltatarO growth, OD600, 18 h, active compounds read low, screened at 18.75 µg/mL (by protocol)
Hit rate of the full screen: of about 52,000 compounds, about 4,300 (8.3%) were called active. This excerpt belongs to a sample that is enriched for actives.

Cc1ccc2c(=O)cc(C(=O)Nc3c(C(=O)c4ccccc4)oc4ccccc34)oc2c1C = 82% (inactive)
COc1cccc(NC(=O)Cn2cc(S(=O)(=O)Cc3ccccc3F)c3ccccc32)c1 = 78% (inactive)
CCN(C(=O)CSc1nnc(Cn2nnc3ccccc32)o1)c1nc(-c2ccccc2)cs1 = 80% (inactive)
Cc1nc2ccn(Cc3ccco3)c(=O)c2cc1C(=O)NCc1ccc(Cl)cc1 = 47% (active)

# evaluate next
Entry COc1ccc(CNC(=O)c2cc3c(=O)n(Cc4cccs4)ccc3nc2C)cc1 has what survival? 37% (active)
